In this section we review reported normalized growth values for a set of compounds.
# test_description: chemical genetic growth profiling, strain panel (AID 1159580);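 note: tested at 20 µM; growth read once vehicle control cultures reached saturation at 30 °C; 1 = growth at the plate median or of vehicle wells; lower values mean less growth of the strain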
# setup_conditions: S. cerevisiae deletion strains, growth OD, locus YHR087W, strain rtc3, active compounds read low
The whole screen tested about 5,500 compounds, of which about 2,000 (36%) were called active. Another 18% or so got no clear call; they are omitted. The list shows a part of the results.
Give the figure by itself; no unit, no explanation.

# count of solved cases: 2
>  <compound>
Cc1cccc(N2C(=O)C3C4C=CC(C4)C3C2=O)n1 (stereo not drawn)

>  <reported_measurement>
0.971

$$$$
>  <compound>
CC(C)(C)c1cc(C(C)(C)C)n(-c2ccc(N=Cc3cc(Br)cc(Br)c3O)cc2)n1

>  <reported_measurement>
0.101

$$$$

Now for the compound whose normalized growth we want.
# get_value(readout='normalized growth', item= COc1ccc(/C(C)=N\NC2=NCCCN2)cc1 )
0.993
